assay: HepG2 liver cancer cell viability effects, profiling panel, resazurin fluorescence, 24 h, PK04 Diversity Set (AID 1172); conditions: higher = more signal; further: test concentration not given here
assay.readout: z-score

Consider the compound C=CCN1C(=O)[C@@]2(CC=C)N=C(c3ccc(OCCCO)cc3)O[C@H]2c2ccccc21 . State its measured z-score.
-0.492

For the compound COCCOC(=O)N1C(=O)[C@@]2(c3ccccc31)[C@H](C(=O)N1CCc3cc(OC)c(OC)cc3C1)[C@H]1C(=O)O[C@H](c3ccccc3)[C@H](c3ccccc3)N1[C@@H]2c1ccc(OCCO)cc1 , give its measured z-score value.
-0.484

Write down z-score measured for item C=C(CCCC)/C(=C/C[C@@H](OC(=O)c1ccncc1)c1ccc(OCCO)cc1)c1cc(C(=O)OC)ccc1OC
0.691

Return value of z-score for input CC(=O)n1cc(C(O)C2C=CC3C(=O)N(c4ccccc4)C(=O)C3N2Nc2ccc([N+](=O)[O-])cc2)c2ccccc21 (stereo unspecified) , no commentary.
-0.768

Quickly give me recorded z-score for C=CCC(OC(C)=O)[C@@H]1[C@@H](N(Cc2ccc(-c3ccccc3)cc2)C(=O)c2ccc(-c3ccccc3)cc2)c2cc(OCCCO)ccc2N1C(=O)Cc1ccc2ccccc2c1 (stereo partly specified)
0.289

Note z-score for the compound shown: C=CCN1C(=O)[C@]2(O[C@H](CCn3cc([C@H](O)c4ccccc4)nn3)[C@@H]([Si](C)(C)c3ccc(OC)cc3)[C@@H]2C)c2cc(N3CCC3=O)ccc21
0.0514
